# assay-text: Volume of distribution at steady state in rat
# Assay type: ADME
# experimental-conditions: in vivo, read-out: Vdss
parameter-measured: Vd (L/kg)
Kindly provide the numeric value in L/kg only, without the unit symbol.

Challenge: Assign Vd to the following record: "O=C(c1cnc(NC2(c3cncnc3)CC2)nc1)N1CCCCC1"
Response given: 1.1

---

# assay-text: Lipophilicity, log D of the compound in Octanol/buffer by shake-flask method
parameter-measured: logD
Output: the number by itself.

Challenge: Assign logD to the following record: "CC(C)(Nc1ncc(C(=O)N2CCC3(CCOCC3)C2)cn1)c1cnccn1"
Response given: 0.6

Challenge: Assign logD to the following record: "O=C(c1cnc(NC2(c3cnccn3)CCC2)nc1)N1CC2(CCOCC2)C1"
Response given: 0.8

Challenge: Assign logD to the following record: "O=C(c1cnc(NCc2cnccn2)nc1)N1CC2(CCOCC2)C1"
Response given: 0

Challenge: Assign logD to the following record: "O=C(c1cnc(NCc2cccnc2)nc1)N1CCC2(CCOCC2)C1"
Response given: 0.7

Challenge: Assign logD to the following record: CS(=O)(=O)C1CCCN(C(=O)c2cnc(NC3(c4cncnc4)CC3)nc2)C1 (racemic)
Response given: -0.8

Challenge: Assign logD to the following record: "O=C(c1cnc(NCc2cncnc2)nc1)N1CCC2(CCOCC2)C1"
Response given: 0

Challenge: Assign logD to the following record: "N#Cc1cccc(C(=O)c2cnc(NCc3cccnc3)nc2)c1"
Response given: 2

Challenge: Assign logD to the following record: "O=C(c1cnc(NC2(c3cnccn3)CCC2)nc1)N1CCC2(CCOCC2)C1"
Response given: 1

Challenge: Assign logD to the following record: "N#Cc1cccc(C(=O)c2cnc(NC3(c4cncnc4)CC3)nc2)c1"
Response given: 1.2

Challenge: Assign logD to the following record: "O=C(c1cnc(NC2(c3cncnc3)CC2)nc1)N1CCC2(CCOCC2)C1"
Response given: 0

Challenge: Assign logD to the following record: "O=C(c1cnc(NC2(c3cncnc3)COC2)nc1)N1CCC2(CCOCC2)C1"
Response given: -3

Challenge: Assign logD to the following record: "C[C@@H](Nc1ncc(C(=O)N2CCC3(CCOCC3)C2)cn1)c1cnccn1"
Response given: 1

Challenge: Assign logD to the following record: "CS(=O)(=O)[C@H]1CCCN(C(=O)c2cnc(NC3(c4cncnc4)CC3)nc2)C1"
Response given: -1

Challenge: Assign logD to the following record: "O=C(c1ccccc1)c1cnc(NCc2cccnc2)nc1"
Response given: 2.5

Challenge: Assign logD to the following record: "C[C@H](Nc1ncc(C(=O)N2CCC3(CCOCC3)C2)cn1)c1cnccn1"
Response given: 0.4

Challenge: Assign logD to the following record: "N#Cc1cccc(C(=O)c2cnc(NCc3ccccc3)nc2)c1"
Response given: 3

Challenge: Assign logD to the following record: "O=C(c1cnc(NCc2cccnc2)nc1)c1cccs1"
Response given: 2.2

Challenge: Assign logD to the following record: N#CC1CCCN(C(=O)c2cnc(NC3(c4cncnc4)CC3)nc2)C1 (racemic)
Response given: -0.3

Challenge: Assign logD to the following record: "CC(C)(Nc1ncc(C(=O)N2CCC3(CCOCC3)C2)cn1)c1cncnc1"
Response given: 0.5

Challenge: Assign logD to the following record: "CS(=O)(=O)[C@@H]1CCCN(C(=O)c2cnc(NC3(c4cncnc4)CC3)nc2)C1"
Response given: -1

---

# assay-text: Intrinsic clearance in human hepatocytes assessed per million cells
# Assay type: ADME, cell-based, Hepatocyte
Kindly state CLint for each of the entries shown.

Challenge: Assign CLint to the following record: "C[C@H](Nc1ncc(C(=O)N2CCC3(CCOCC3)C2)cn1)c1cnccn1"
Response given: < 3 µL/min/1e6 cells

Challenge: Assign CLint to the following record: "CC(C)(Nc1ncc(C(=O)N2CC3(CCOCC3)C2)cn1)c1cnccn1"
Response given: < 3.5 µL/min/1e6 cells

Challenge: Assign CLint to the following record: O=C(c1cnc(NCc2cnccn2)nc1)N1CCC2(CCOCC2)C1 [PFI-653]
Response given: < 3 µL/min/1e6 cells

Challenge: Assign CLint to the following record: "O=C(c1cnc(NC2(c3cncnc3)CC2)nc1)N1CCCCC1"
Response given: 11 µL/min/1e6 cells

---

Kindly state IC50 for each of the entries shown.
# test-system: Pantetheinase (Homo sapiens)
# Sequence (O95497 whole entry): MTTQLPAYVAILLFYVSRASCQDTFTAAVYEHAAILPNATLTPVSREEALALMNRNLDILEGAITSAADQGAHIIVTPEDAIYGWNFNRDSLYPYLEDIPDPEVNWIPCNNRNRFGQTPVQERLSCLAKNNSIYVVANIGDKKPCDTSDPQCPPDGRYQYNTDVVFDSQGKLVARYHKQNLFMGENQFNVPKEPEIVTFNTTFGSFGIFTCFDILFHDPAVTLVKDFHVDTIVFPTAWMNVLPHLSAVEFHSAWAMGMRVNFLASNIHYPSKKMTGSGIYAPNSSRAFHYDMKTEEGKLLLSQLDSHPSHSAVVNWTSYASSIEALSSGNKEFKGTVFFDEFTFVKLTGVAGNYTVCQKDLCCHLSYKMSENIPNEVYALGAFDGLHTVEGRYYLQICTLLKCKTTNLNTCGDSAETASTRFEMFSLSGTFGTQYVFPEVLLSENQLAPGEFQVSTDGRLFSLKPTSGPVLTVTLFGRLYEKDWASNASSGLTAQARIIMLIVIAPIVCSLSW
# assay-text: Inhibition of recombinant N-terminal FLAG/His6-tagged human vanin-1 expressed in CHO cells using Pantetheine-7-amino-4-trifluoromethykournarin as substrate preincubated for 30 mins followed by substrate addition and measured after 60 mins
Kindly provide the numeric value in nM only, without the unit symbol.

Challenge: Assign IC50 to the following record: "N#Cc1cccc(C(=O)c2cnc(NCc3cncnc3)nc2)c1"
Response given: 33

Challenge: Assign IC50 to the following record: "C[C@H](Nc1ncc(C(=O)N2CC3(CCOCC3)C2)cn1)c1cnccn1"
Response given: 0.6

Challenge: Assign IC50 to the following record: "O=C(c1cnc(NC2(c3cnccn3)CCC2)nc1)N1CC2(CCOCC2)C1"
Response given: 0.04

Challenge: Assign IC50 to the following record: "N#Cc1cccc(C(=O)c2cnc(NCc3cccnc3)nc2)c1"
Response given: 4.4

Challenge: Assign IC50 to the following record: "CS(=O)(=O)[C@H]1CCCN(C(=O)c2cnc(NC3(c4cncnc4)CC3)nc2)C1"
Response given: 1100

Challenge: Assign IC50 to the following record: "CC(C)(Nc1ncc(C(=O)N2CC3(CCOCC3)C2)cn1)c1cnccn1"
Response given: 0.11

---

# assay-text: Plasma protein binding in beagle dog assessed as unbound fraction
# Assay type: ADME, cell-free, Canis lupus familiaris
parameter-measured: fraction unbound
Output: the number by itself.

Challenge: Assign fraction unbound to the following record: "O=C(c1cnc(NCc2cnccn2)nc1)N1CCC2(CCOCC2)C1"
Response given: 0.826

---

# assay-text: Intrinsic clearance in human hepatocytes assessed per million cells by relay assay method
# Assay type: ADME, cell-based, Hepatocyte
parameter-measured: CLint (µL/min/1e6 cells)
Kindly provide the numeric value in µL/min/1e6 cells only, without the unit symbol.

Challenge: Assign CLint to the following record: "CC(C)(Nc1ncc(C(=O)N2CC3(CCOCC3)C2)cn1)c1cnccn1"
Response given: 1.66

Challenge: Assign CLint to the following record: "C[C@H](Nc1ncc(C(=O)N2CCC3(CCOCC3)C2)cn1)c1cnccn1"
Response given: 0.25

---

# assay-text: Oral bioavailability in rat at 10 mg/kg measured upto 24 hrs by LC-MS/MS analysis
# Assay type: ADME, organism-based
# experimental-conditions: in vivo
parameter-measured: bioavailability (%)
Kindly provide the numeric value in % only, without the unit symbol.

Challenge: Assign bioavailability to the following record: O=C(c1cnc(NCc2cnccn2)nc1)N1CCC2(CCOCC2)C1 [PFI-653]
Response given: 96

Challenge: Assign bioavailability to the following record: "C[C@H](Nc1ncc(C(=O)N2CCC3(CCOCC3)C2)cn1)c1cnccn1"
Response given: 37

---

Kindly state IC50 for each of the entries shown.
# test-system: Pantetheinase (Mus musculus, UniProt Q9Z0K8)
# Sequence (Q9Z0K8 whole entry): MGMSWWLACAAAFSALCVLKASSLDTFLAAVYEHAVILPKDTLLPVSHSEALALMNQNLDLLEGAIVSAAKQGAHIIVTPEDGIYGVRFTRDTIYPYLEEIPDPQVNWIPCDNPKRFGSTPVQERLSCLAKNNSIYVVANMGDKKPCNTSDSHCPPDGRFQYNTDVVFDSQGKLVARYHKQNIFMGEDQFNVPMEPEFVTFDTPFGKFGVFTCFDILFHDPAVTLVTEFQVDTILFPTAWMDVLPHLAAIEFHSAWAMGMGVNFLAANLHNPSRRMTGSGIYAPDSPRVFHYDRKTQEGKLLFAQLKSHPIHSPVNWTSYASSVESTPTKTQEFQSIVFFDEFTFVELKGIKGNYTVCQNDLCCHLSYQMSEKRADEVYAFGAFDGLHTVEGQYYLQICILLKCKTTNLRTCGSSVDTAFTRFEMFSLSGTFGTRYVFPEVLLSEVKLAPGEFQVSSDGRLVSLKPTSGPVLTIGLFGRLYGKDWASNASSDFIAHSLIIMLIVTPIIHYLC
Kindly provide the numeric value in nM only, without the unit symbol.

Challenge: Assign IC50 to the following record: "O=C(c1cnc(NC2(c3cncnc3)CC2)nc1)N1CCCCC1"
Response given: 10.2

Challenge: Assign IC50 to the following record: "CC(C)(Nc1ncc(C(=O)N2CC3(CCOCC3)C2)cn1)c1cnccn1"
Response given: 0.41

Challenge: Assign IC50 to the following record: "C[C@H](Nc1ncc(C(=O)N2CCC3(CCOCC3)C2)cn1)c1cnccn1"
Response given: 0.56

Challenge: Assign IC50 to the following record: "N#Cc1cccc(C(=O)c2cnc(NC3(c4cncnc4)CC3)nc2)c1"
Response given: 4.8
